target: human D2long receptor (Homo sapiens); construct: expressed in transfected cells; host or cells: Chinese hamster ovary (CHO) cells, membranes; test: radioligand binding with [^3H]spiperone, D2long; details: [^3H]spiperone, CHO membranes, mean of 2 to 4 experiments; read-out: Ki D2lo
Sequence (P14416 whole entry): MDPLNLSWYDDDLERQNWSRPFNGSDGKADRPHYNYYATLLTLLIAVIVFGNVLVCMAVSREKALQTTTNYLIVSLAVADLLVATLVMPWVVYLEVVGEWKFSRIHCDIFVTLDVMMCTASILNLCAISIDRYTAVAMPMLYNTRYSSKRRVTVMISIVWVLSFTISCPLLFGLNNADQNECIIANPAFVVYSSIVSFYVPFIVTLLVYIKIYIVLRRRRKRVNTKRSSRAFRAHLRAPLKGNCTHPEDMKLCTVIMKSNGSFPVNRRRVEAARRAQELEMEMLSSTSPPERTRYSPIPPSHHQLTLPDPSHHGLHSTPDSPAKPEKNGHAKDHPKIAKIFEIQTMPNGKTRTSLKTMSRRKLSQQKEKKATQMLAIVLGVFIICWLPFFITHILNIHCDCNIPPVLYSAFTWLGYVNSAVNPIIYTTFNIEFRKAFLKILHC
experimental readout: Ki

response.value for O=Cc1cnn2ccc(OCCCCN3CCN(c4ccccc4Cl)CC3)cc12 (field: Ki) = < 30 nM

response.value for COc1ccccc1N1CCN(CCCCOc2ccn3ncc(CO)c3c2)CC1 (field: Ki) = < 30 nM

response.value for COc1ccccc1N1CCN(CCCCOc2nn3ccccc3c2C=O)CC1 (field: Ki) = < 30 nM

response.value for O=Cc1cnn2c(OCCCCN3CCN(c4ccccc4Cl)CC3)cccc12 (field: Ki) = 30 to 300 nM

response.value for Clc1cccc(N2CCN(CCCCOc3cccc4ccnn34)CC2)c1Cl (field: Ki) = 30 to 300 nM

response.value for Clc1cccc(N2CCN(CCCCOc3ccc4ccnn4c3)CC2)c1Cl (field: Ki) = < 30 nM

response.value for O=Cc1cnn2cc(OCCCCN3CCN(c4ccccc4Cl)CC3)ccc12 (field: Ki) = < 30 nM

response.value for O=Cc1cnn2cc(OCCCCN3CCN(c4cccc(Cl)c4Cl)CC3)ccc12 (field: Ki) = < 30 nM

response.value for COC(=O)c1cnn2ccc(OCCCCN3CCN(c4ccccc4Cl)CC3)cc12 (field: Ki) = < 30 nM

response.value for COc1ccc(N2CCN(CCCCOc3ccn4ncc(C=O)c4c3)CC2)cc1 (field: Ki) = 30 to 300 nM

response.value for Clc1ccccc1N1CCN(CCCCOc2ccn3ncc(Cl)c3c2)CC1 (field: Ki) = 30 to 300 nM

response.value for N#Cc1cnn2ccc(OCCCCN3CCN(c4cccc(Cl)c4Cl)CC3)cc12 (field: Ki) = < 30 nM

response.value for O=Cc1cnn2ccc(OCCCCN3CCN(c4cccc(Cl)c4Cl)CC3)cc12 (field: Ki) = < 30 nM

response.value for CC(=O)c1cnn2ccc(OCCCCN3CCN(c4cccc(Cl)c4Cl)CC3)cc12 (field: Ki) = < 30 nM

response.value for O=Cc1cnn2ccc(OCCCCN3CCN(c4cccc([N+](=O)[O-])c4)CC3)cc12 (field: Ki) = < 30 nM

response.value for O=Cc1cnn2cccc(OCCCCN3CCN(c4ccccc4Cl)CC3)c12 (field: Ki) = < 30 nM

response.value for Clc1ccccc1N1CCN(CCCCOc2ccc3ccnn3c2)CC1 (field: Ki) = < 30 nM

response.value for O=Cc1cnn2ccc(COCCCN3CCN(c4cccc(Cl)c4Cl)CC3)cc12 (field: Ki) = < 30 nM

* * *

biological target: human D3 receptor (Homo sapiens); construct: expressed in transfected cells; host or cells: Chinese hamster ovary (CHO) cells, membranes; test: radioligand binding with [^3H]spiperone, D3; settings: ratio of Ki values
Sequence (P35462 whole entry): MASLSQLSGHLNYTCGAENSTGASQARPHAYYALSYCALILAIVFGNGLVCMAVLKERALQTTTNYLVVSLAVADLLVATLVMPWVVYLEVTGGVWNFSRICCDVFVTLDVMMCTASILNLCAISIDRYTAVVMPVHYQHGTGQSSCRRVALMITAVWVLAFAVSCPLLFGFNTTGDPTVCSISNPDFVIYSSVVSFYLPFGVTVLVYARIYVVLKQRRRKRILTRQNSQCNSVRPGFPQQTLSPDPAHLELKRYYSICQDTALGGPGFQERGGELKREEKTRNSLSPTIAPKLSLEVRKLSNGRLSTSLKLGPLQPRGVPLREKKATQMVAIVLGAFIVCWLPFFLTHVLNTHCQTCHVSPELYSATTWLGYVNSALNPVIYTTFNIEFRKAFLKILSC
Label class 1 when ratio D2lo/D3 is at or above 10; anything below gets class 0.

Record COc1ccccc1N1CCN(CCCCNC(=O)c2ccn3ncc(Br)c3c2)CC1 [Example B28] ; criterion: ratio D2lo/D3 no lower than 10. Met?
class 1

Record COc1ccccc1N1CCN(CCCCOc2ccn3ncc(Cl)c3c2)CC1 [Example E46] ; criterion: ratio D2lo/D3 no lower than 10. Met?
class 0

Record COc1ccccc1N1CCN(CCCCNC(=O)c2ccc3nccn3c2)CC1 [Example B93] ; criterion: ratio D2lo/D3 no lower than 10. Met?
class 1

Record COc1ccccc1N1CCN(CCCCOc2cc3ccccn3n2)CC1 [Example E2] ; criterion: ratio D2lo/D3 no lower than 10. Met?
class 0

Record O=C(NCCCCN1CCN(c2cccc(Cl)c2Cl)CC1)c1ccn2nccc2c1 [Example B26] ; criterion: ratio D2lo/D3 no lower than 10. Met?
class 1

Record O=C(NCCCCN1CCN(c2cccc(Cl)c2Cl)CC1)c1cc2ccccn2n1 [Example B8] ; criterion: ratio D2lo/D3 no lower than 10. Met?
class 1

Record COc1ccccc1N1CCN(CCCCNC(=O)c2ccn3ncc(Cl)c3c2)CC1 [Example B29] ; criterion: ratio D2lo/D3 no lower than 10. Met?
class 1

* * *

I'd be grateful if you could share measured pKi for these entries.
molecular target: 5-HT1A receptor (Sus scrofa); construct: membrane preparations from porcine cortical material; from tissue; host or cells: porcine cerebral cortex membranes; experiment: radioligand binding, porcine cortical membranes, [^3H]8-OH-DPAT and [^3H]WAY 100635; conditions: porcine cortical membranes
pKi: −log10 of the molar value.

response.value for CC(=O)c1cnn2ccc(OCCCCN3CCN(c4cccc(Cl)c4Cl)CC3)cc12 [Example E27] (field: pKi) = > 7.52

response.value for O=Cc1cnn2cc(OCCCCN3CCN(c4ccccc4Cl)CC3)ccc12 [Example E56] (field: pKi) = > 7.52

response.value for Clc1cccc(N2CCN(CCCCOc3ccn4nnnc4c3)CC2)c1Cl [Example E63] (field: pKi) = 6.52 to 7.52

response.value for Clc1ccccc1N1CCN(CCCCOc2ccc3ccnn3c2)CC1 [Example E53] (field: pKi) = > 7.52

response.value for Clc1cccc(N2CCN(CCCCOc3cccc4ccnn34)CC2)c1Cl [Example E57] (field: pKi) = 6.52 to 7.52

* * *

I'd be grateful if you could share measured Emax for these entries.
molecular target: dopamine D2short receptor (Homo sapiens); experiment: [^35S]GTPγS-incorporation assay, intrinsic activity; settings: read-out: D2short: [^35S]GTPγS intrinsic activity, % activity of quinpirol
Sequence (P14416 1-414 isoform P14416-2): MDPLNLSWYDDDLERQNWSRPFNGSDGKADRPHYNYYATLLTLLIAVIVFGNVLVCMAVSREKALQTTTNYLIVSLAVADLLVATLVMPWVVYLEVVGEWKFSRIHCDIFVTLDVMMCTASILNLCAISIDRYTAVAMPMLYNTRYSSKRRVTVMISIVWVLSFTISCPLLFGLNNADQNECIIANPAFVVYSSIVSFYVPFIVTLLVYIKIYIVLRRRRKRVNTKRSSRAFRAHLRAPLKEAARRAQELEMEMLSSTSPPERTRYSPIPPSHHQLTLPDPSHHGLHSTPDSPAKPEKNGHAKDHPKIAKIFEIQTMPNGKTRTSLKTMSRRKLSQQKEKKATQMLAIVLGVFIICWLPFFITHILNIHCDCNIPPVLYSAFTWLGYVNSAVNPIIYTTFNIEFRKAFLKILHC

response.value for ON=Cc1cnn2ccc(OCCCCN3CCN(c4ccccc4Cl)CC3)cc12 [Example E32] (field: Emax) = 15 to 40%

response.value for Clc1cccc(N2CCN(CCCCOc3cccn4nccc34)CC2)c1Cl [Example E7] (field: Emax) = < 15%

response.value for O=Cc1cnn2cc(OCCCCN3CCN(c4cccc(Cl)c4Cl)CC3)ccc12 [Example E54] (field: Emax) = < 15%

response.value for COc1ccccc1N1CCN(CCCCOc2ccn3ncc(CN)c3c2)CC1 [Example E78] (field: Emax) = 15 to 40%

response.value for Oc1ccc(N2CCN(CCCCOc3ccn4nccc4c3)CC2)cc1 [Example E20] (field: Emax) = 15 to 40%

response.value for Clc1ccccc1N1CCN(CCCCOc2ccc3ccnn3c2)CC1 [Example E53] (field: Emax) = < 15%

response.value for Clc1ccccc1N1CCN(CCCCOc2ccn3ncc(Cl)c3c2)CC1 [Example E47] (field: Emax) = < 15%

response.value for Clc1ccccc1N1CCN(CCCCOc2ccn3nccc3c2)CC1 [Example E17] (field: Emax) = 15 to 40%

response.value for Clc1cccc(N2CCN(CCCCOc3ccn4ncc(Br)c4c3)CC2)c1Cl [Example E42] (field: Emax) = 15 to 40%

* * *

target: 5-HT1A receptor (Sus scrofa, UniProt A0A4X1UTF5); construct: membrane preparations from porcine cortical material; from tissue; host or cells: porcine cerebral cortex membranes; experiment: radioligand binding, porcine cortical membranes, [^3H]8-OH-DPAT and [^3H]WAY 100635; settings: porcine cortical membranes
Sequence (A0A4X1UTF5 1-422): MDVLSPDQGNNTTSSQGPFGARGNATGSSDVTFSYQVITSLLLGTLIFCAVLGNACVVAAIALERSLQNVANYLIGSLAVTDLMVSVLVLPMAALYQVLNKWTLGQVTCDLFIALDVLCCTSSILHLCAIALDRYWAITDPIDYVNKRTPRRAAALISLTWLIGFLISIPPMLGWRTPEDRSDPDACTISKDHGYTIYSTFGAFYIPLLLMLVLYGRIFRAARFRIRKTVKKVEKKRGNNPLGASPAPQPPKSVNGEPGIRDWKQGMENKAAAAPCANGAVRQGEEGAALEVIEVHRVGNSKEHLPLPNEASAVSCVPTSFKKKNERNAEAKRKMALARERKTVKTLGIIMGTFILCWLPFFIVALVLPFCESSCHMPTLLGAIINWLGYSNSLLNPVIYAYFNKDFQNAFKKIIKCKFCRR
experimental readout: Ki

response.value for O=Cc1cnn2ccc(COCCCN3CCN(c4cccc(Cl)c4Cl)CC3)cc12 (field: Ki) = < 30 nM

response.value for O=Cc1cnn2c(OCCCCN3CCN(c4ccccc4Cl)CC3)cccc12 (field: Ki) = < 30 nM

response.value for COc1ccccc1N1CCN(CCCCOc2ccn3ncc(C=O)c3c2)CC1 (field: Ki) = < 30 nM

response.value for Oc1ccc(N2CCN(CCCCOc3ccn4nccc4c3)CC2)cc1 (field: Ki) = > 3000 nM

response.value for O=Cc1cnn2ccc(OCCCCN3CCN(c4cccc([N+](=O)[O-])c4)CC3)cc12 (field: Ki) = 30 to 300 nM

* * *

target: 5-HT2 receptor (Sus scrofa); construct: membrane preparations from porcine cortical material; from tissue; host or cells: porcine cerebral cortex membranes; experiment: radioligand binding, porcine cortical membranes, [^3H]ketanserin; conditions: porcine cortical membranes, [^3H]ketanserin
Sequence (P50129 whole entry): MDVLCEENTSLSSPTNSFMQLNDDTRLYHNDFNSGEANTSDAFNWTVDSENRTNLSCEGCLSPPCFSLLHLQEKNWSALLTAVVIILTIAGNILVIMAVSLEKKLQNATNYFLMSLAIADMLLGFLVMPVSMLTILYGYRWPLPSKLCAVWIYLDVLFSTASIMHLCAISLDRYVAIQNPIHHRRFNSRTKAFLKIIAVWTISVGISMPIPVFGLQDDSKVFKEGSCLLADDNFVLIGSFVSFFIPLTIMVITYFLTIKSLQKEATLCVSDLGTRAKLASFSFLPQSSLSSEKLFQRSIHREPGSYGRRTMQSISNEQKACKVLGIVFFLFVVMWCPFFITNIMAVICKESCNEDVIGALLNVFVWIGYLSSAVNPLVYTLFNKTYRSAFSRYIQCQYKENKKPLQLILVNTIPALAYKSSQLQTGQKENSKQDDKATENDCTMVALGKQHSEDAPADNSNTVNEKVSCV
experimental readout: Ki

response.value for O=Cc1cnn2c(OCCCCN3CCN(c4cccc(Cl)c4Cl)CC3)cccc12 (field: Ki) = 0.03 to 0.3 µM

response.value for O=Cc1cnn2cc(OCCCCN3CCN(c4cccc(Cl)c4Cl)CC3)ccc12 (field: Ki) = 0.03 to 0.3 µM

response.value for O=Cc1cnn2ccc(OCCCCN3CCN(c4cccc([N+](=O)[O-])c4)CC3)cc12 (field: Ki) = 0.301 to 3 µM

response.value for O=Cc1cnn2cc(OCCCCN3CCN(c4ccccc4Cl)CC3)ccc12 (field: Ki) = 0.301 to 3 µM

response.value for COc1ccccc1N1CCN(CCCCOc2ccn3ncc(CN)c3c2)CC1 (field: Ki) = 0.301 to 3 µM

response.value for Clc1ccccc1N1CCN(CCCCOc2ccn3nccc3c2)CC1 (field: Ki) = 0.301 to 3 µM

response.value for O=Cc1cnn2ccc(OCCCCN3CCN(c4ccccc4Cl)CC3)cc12 (field: Ki) = 0.301 to 3 µM

response.value for COc1ccccc1N1CCN(CCCCOc2ccn3ncc(C=NO)c3c2)CC1 [Example E31] (field: Ki) = 0.301 to 3 µM

response.value for ON=Cc1cnn2ccc(OCCCCN3CCN(c4cccc(Cl)c4Cl)CC3)cc12 [Example E33] (field: Ki) = 0.03 to 0.3 µM
